The following sequences are shown together with reported PBM E-score values.
Molecular target: Gcr1 (UniProt P07261)
Sequence: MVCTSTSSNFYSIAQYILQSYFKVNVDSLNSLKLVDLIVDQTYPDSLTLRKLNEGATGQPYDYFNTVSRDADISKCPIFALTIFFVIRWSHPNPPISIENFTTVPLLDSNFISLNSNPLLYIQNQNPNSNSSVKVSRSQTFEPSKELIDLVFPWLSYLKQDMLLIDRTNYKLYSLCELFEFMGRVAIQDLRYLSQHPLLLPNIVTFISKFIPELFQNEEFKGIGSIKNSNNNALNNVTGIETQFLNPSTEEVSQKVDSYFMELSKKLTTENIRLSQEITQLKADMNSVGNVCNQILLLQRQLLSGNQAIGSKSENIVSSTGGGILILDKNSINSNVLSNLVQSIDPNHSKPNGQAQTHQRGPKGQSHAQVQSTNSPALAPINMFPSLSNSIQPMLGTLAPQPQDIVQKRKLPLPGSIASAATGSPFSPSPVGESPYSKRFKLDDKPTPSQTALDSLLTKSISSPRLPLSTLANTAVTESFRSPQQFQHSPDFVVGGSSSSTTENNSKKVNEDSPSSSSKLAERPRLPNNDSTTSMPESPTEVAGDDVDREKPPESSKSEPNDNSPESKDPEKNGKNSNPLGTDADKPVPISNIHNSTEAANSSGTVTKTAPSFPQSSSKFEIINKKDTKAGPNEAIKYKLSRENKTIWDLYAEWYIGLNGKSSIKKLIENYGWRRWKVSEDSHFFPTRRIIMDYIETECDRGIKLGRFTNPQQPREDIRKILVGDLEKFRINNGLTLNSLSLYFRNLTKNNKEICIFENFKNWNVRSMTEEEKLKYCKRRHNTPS
Assay: PBM E-score (8-mer binding enrichment) (E-score (-0.5 to 0.5)); higher = stronger / more preferred TF binding
Conditions: protein concentration: 100 nM; construct: GST-full length
Over roughly 33,000 sequences, “E-score (-0.5 to 0.5)” has its median near -0.011; the highest 2% begin near 0.28. Shown is part of a subset that was picked to be rich in the highest values.
// print number alone

residue_string=ACAGGCAG reported=0.252
residue_string=AACAGGAG reported=-0.0445
residue_string=AGCCATGC reported=-0.346
residue_string=GATTCCCC reported=0.289
residue_string=GATTCCTA reported=0.439
residue_string=AATTCCCC reported=0.0615
residue_string=ACACTAAG reported=-0.00776
residue_string=CCGGCGTA reported=-0.139
residue_string=CATAACCC reported=-0.121
residue_string=CTGGCGGC reported=0.265

Query: Notebook: pull reported PBM E-score for Gcr1 (UniProt P07261), entry GCGGCGAC
Reply: 0.148

Query: Follow-up item: AACAGGAA
Reply: 0.334

Query: Follow-up item: CCACTATA
Reply: 0.276

Query: Follow-up item: ATTCTCGG
Reply: 0.123

Query: Follow-up item: ATCCCTTA
Reply: -0.00764

Query: Follow-up item: GCGTATAC
Reply: 0.156

---

Target: Gcr1 (UniProt P07261)
Sequence: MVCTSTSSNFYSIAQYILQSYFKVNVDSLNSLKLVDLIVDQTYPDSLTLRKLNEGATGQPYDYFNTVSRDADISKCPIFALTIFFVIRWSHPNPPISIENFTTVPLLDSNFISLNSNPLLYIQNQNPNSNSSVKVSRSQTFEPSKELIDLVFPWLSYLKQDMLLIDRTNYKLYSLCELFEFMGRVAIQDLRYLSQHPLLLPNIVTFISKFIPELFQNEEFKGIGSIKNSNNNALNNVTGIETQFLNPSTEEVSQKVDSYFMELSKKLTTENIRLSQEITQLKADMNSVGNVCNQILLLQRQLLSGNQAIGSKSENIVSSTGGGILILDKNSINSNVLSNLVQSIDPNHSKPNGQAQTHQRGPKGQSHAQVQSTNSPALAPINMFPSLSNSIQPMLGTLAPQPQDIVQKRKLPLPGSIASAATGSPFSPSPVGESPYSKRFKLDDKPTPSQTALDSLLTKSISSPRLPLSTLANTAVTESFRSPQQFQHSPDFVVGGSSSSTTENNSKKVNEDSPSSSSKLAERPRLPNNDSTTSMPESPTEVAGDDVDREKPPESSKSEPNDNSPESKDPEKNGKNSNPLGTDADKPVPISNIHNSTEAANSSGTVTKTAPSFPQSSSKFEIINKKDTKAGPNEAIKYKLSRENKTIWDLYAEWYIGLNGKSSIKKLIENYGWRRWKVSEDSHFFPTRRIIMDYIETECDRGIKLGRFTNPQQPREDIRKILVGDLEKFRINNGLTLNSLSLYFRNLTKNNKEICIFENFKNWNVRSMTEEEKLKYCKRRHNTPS
Assay: PBM E-score (8-mer binding enrichment) (E-score (-0.5 to 0.5)); higher = stronger / more preferred TF binding
Conditions: protein concentration: 100 nM; construct: GST-full length
Whole data set: some 33,000 sequences, median “E-score (-0.5 to 0.5)” near -0.011, cut for the highest 2% near 0.28. The entries come from a sample that favours the highest values as a whole.
PROPERTY LABEL: PBM E-score
// print number alone

residue_string=TAGAACCA property_label="PBM E-score" reported=0.0906
residue_string=TGGAACCA property_label="PBM E-score" reported=0.357
residue_string=CACCACCG property_label="PBM E-score" reported=-0.0609
residue_string=CAGAACCC property_label="PBM E-score" reported=0.208

Query: Data request, read-out PBM E-score, for CTGTGGCA
Reply: 0.0358

Query: Follow-up item: GAGTGGAC
Reply: -0.0196

Query: Follow-up item: AAGTGGTA
Reply: 0.176

Query: Follow-up item: GCCTTCGA
Reply: -0.126

Query: Follow-up item: TAGGCGCA
Reply: 0.225

Query: Follow-up item: CCTCCCCG
Reply: 0.0903

Query: Follow-up item: TGGTGGAA
Reply: 0.124

---

Biological target: Gcr1 (UniProt P07261)
Sequence: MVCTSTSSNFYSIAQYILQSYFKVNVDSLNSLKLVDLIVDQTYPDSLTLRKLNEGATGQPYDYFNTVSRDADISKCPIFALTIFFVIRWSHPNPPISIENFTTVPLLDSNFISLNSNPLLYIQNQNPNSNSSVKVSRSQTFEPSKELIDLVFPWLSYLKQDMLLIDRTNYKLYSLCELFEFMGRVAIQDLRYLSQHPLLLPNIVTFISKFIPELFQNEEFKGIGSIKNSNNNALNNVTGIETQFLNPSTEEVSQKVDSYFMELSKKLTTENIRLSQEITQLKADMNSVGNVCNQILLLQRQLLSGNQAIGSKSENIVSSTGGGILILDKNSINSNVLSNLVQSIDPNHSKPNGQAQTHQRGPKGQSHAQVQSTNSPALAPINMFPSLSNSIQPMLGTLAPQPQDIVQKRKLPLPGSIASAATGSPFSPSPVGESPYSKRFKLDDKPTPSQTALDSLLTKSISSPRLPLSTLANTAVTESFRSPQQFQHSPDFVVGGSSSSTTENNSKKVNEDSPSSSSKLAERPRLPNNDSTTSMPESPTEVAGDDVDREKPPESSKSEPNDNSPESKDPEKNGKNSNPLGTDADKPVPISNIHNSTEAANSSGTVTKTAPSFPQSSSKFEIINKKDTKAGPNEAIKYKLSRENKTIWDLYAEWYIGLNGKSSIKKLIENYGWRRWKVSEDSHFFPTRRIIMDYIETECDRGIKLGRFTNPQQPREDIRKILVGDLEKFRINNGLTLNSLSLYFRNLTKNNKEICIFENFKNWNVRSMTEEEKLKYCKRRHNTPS
Test: PBM E-score (8-mer binding enrichment) (E-score (-0.5 to 0.5)); higher = stronger / more preferred TF binding
Details: protein concentration: 100 nM; construct: GST-full length
In all, about 33,000 sequences were measured (“E-score (-0.5 to 0.5)”: median about -0.011, highest 2% from about 0.28 on). The sample as a whole holds a higher share of the highest values than the screen did.
PROPERTY LABEL: PBM E-score
// print number alone

In the examples that follow, each entry is paired with its recorded PBM E-score.
residue_string=AAAGTAAT reported=0.154
residue_string=CCGGTACG reported=-0.0393
residue_string=ATAGAGGG reported=0.137
residue_string=ACAGCTCA reported=-0.146

Query: Data request, read-out PBM E-score, for AAATTTGC
Reply: 0.109

Query: Follow-up item: CCCAGTCC
Reply: -0.0352

Query: Follow-up item: CTGGAAAC
Reply: 0.196

Query: Follow-up item: AATCGCAA
Reply: 0.0343

Query: Follow-up item: CGGGCCGC
Reply: 0.0123

Query: Follow-up item: TCAAGGCA
Reply: -0.127

Query: Follow-up item: CACAGCTA
Reply: -0.0538

Query: Follow-up item: ATAGAGGC
Reply: 0.174

Query: Follow-up item: AGACGGAA
Reply: -0.0525

Query: Follow-up item: CAGCCACG
Reply: 0.12

Query: Follow-up item: ACGAGCAC
Reply: -0.0665

Query: Follow-up item: AGGTAGTC
Reply: 0.072
